Molecular target: CDK7/CyclinH/MAT1 (Homo sapiens)
Sequence (P50613 whole entry): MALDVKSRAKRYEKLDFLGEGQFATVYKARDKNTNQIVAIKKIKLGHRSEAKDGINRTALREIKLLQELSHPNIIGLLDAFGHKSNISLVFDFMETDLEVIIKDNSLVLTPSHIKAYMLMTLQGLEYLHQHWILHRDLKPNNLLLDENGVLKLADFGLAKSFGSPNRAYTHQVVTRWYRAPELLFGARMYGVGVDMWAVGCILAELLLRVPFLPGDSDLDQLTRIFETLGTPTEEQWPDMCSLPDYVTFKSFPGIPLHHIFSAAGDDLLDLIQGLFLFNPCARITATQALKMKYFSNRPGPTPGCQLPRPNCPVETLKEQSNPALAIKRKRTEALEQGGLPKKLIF
Sequence (P51946 whole entry partner): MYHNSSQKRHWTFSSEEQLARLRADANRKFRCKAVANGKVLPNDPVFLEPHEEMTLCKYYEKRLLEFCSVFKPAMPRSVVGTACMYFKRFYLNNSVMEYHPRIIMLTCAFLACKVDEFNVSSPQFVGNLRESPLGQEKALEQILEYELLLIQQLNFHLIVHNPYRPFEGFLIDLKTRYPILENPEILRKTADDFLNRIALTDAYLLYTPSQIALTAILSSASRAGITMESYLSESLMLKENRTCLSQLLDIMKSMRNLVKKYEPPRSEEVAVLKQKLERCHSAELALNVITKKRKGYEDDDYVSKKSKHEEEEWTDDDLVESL
Sequence (P51948 whole entry partner): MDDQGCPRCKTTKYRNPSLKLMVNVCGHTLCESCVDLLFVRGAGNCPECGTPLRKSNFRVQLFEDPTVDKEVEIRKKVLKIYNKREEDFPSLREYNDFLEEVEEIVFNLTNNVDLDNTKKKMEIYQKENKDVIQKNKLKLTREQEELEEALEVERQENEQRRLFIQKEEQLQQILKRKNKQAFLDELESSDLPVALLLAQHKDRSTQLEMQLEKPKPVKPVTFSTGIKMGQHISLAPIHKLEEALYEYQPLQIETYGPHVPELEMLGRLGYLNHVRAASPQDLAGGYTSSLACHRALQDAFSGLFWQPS
Assay: Determination of CDK activity (Caliper mobility shift, FAM-P8 peptide): CDK7
Assay type: biochemical
Details: read-out: CDK7 enzymatic inhibitory activity (IC50)
pIC50: −log10 of the molar value. Where a name gives a salt, the structure may show the parent alone.
ENDPOINT: pIC50

Ask | Quick one: pIC50 of Cc1nc2c(F)cc(-c3nc(Nc4ccc(C(O)C5CCNCC5)cn4)ncc3F)cc2n1C(C)C (stereo not shown) [Example 42, hydrochloride] ?
Reply | 6.30 to 7.00

* * *

Assay: Pharmacokinetic study in rats
Assay type: in vivo, Sprague-Dawley rats
Conditions: rat; male Sprague-Dawley rats, plasma; study dosed iv 2 mg/kg and oral 5 mg/kg, route of this parameter not given
Recorded measurements of Tmax, one per entry
The figure you give is taken to be in h; do not add the unit.

>  <MOLECULE>
CCN1CCC(C(O)c2ccc(Nc3ncc(F)c(-c4cc(F)c5nc(C)n(C(C)C)c5c4)n3)nc2)CC1 (single isomer, unassigned) [Example 40]

>  <Tmax / h>
4

$$$$
>  <MOLECULE>
CCN1CCC(C(C)c2ccc(Nc3ncc(F)c(-c4cc(F)c5nc(C)n(C(C)C)c5c4)n3)nc2)CC1 (single isomer, unassigned) [Example 17]

>  <Tmax / h>
8

$$$$
>  <MOLECULE>
C=C(c1ccc(Nc2ncc(F)c(-c3cc(F)c4nc(C)n(C(C)C)c4c3)n2)nc1)C1CCN(CC)CC1 [Example 33]

>  <Tmax / h>
8

$$$$

Ask | Item under review: CCN1CCC(=Cc2ccc(Nc3ncc(F)c(-c4cc(F)c5nc(C)n(C(C)C)c5c4)n3)nc2)CC1 [Example 57] . Reported Tmax?
Reply | 8

* * *

Biological target: CDK4/CycD3 (Homo sapiens, UniProt P11802)
Sequence (P11802 whole entry): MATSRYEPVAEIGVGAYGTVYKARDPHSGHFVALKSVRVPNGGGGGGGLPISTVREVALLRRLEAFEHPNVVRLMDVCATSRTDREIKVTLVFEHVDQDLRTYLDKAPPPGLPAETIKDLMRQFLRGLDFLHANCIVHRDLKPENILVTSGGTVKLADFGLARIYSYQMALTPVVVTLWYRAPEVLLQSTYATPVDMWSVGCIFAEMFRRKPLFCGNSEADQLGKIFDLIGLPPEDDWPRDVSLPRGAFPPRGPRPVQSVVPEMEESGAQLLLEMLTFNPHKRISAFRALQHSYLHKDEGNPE
Sequence (P30281 whole entry partner): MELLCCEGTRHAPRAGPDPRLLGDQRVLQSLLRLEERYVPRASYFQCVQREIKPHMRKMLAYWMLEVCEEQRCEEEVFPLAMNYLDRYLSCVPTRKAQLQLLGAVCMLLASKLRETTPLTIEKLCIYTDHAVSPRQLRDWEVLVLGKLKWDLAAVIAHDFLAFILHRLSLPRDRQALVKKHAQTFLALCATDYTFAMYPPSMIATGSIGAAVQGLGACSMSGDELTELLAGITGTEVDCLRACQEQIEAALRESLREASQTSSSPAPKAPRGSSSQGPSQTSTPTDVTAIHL
Experiment: Determination of CDK activity (Caliper mobility shift, FAM-P8 peptide): CDK4
Assay type: biochemical
Details: CDK4/CycD3; read-out: CDK4 enzymatic inhibitory activity (IC50)
pIC50: −log10 of the molar value.
ENDPOINT: pIC50

>  <COMPOUND>
CCN1CCC(C(O)c2ccc(Nc3ncc(F)c(-c4cc(F)c5nc(C)n(C(C)C)c5c4)n3)nc2)CC1 (single isomer, unassigned) [Example 40]

>  <pIC50>
> 7.00

$$$$
>  <COMPOUND>
CC(=C1CCN(C)CC1)c1ccc(Nc2ncc(F)c(-c3cc(F)c4nc(C)n(C(C)C)c4c3)n2)nc1 [Example 62]

>  <pIC50>
> 7.00

$$$$
>  <COMPOUND>
C=C(c1ccc(Nc2ncc(F)c(-c3cc(F)c4nc(C)n(C(C)C)c4c3)n2)nc1)N1CCN(CC)CC1 [Example 36]

>  <pIC50>
6.30 to 7.00

$$$$

Ask | Could you share which pIC50 value was measured for Cc1nc2c(F)cc(-c3nc(Nc4ccc([C@@H](O)C5CCN(C)CC5)cn4)ncc3F)cc2n1C(C)C [Example 50] ?
Reply | > 7.00

Ask | Requested field: pIC50. Item: Cc1nc2c(F)cc(-c3nc(Nc4ccc(C(C)C5CCNCC5)cn4)ncc3F)cc2n1C(C)C (single isomer, unassigned) [Example 19]
Reply | 6.30 to 7.00

Ask | Would you kindly share the measured pIC50 for CCN1CCC(C(OC(C)=O)c2ccc(Nc3ncc(F)c(-c4cc(F)c5nc(C)n(C(C)C)c5c4)n3)nc2)CC1 (single isomer, unassigned) [Example 71] ?
Reply | > 7.00
